Give pIC50 for every item shown.
molecular target: HLA-A*0301 (Homo sapiens, UniProt P04439); assay: biochemical; format: binding
Ends that are not written are not given here.
pIC50 here is simply -log10 of the concentration when that concentration is written in mol/L.

What value of pIC50 on HLA-A*0301 (Homo sapiens, UniProt P04439) does KLVGINMSKK [PB1.471] have?
7.85

Missing value: pIC50, HLA-A*0301 (Homo sapiens, UniProt P04439), entry SFSFGGFTFK [PB2.322] . Fill in?
7.13

Lookup: pIC50 / HLA-A*0301 (Homo sapiens, UniProt P04439) / VLRGFLILGK [PB2.690]
8.00

Report pIC50 for GTFEFTSFFY [PB1.488] tested on HLA-A*0301 (Homo sapiens, UniProt P04439).
7.80

Short answer please: pIC50, HLA-A*0301 (Homo sapiens, UniProt P04439), entry KFLPDLYDYK [PA.104]
6.59

Value wanted: pIC50 (HLA-A*0301 (Homo sapiens, UniProt P04439)) of entry ASCMGLIYNR [M1.125]
6.09

Any idea what pIC50 came out for RLFFKCIYRR [M2.45] on HLA-A*0301 (Homo sapiens, UniProt P04439)?
6.87

* * *

For each record, write down the corresponding IC50.
molecular target: HLA-A*6802 (Homo sapiens, UniProt P04439, A269V/D140Y/D185E/E176V/E277Q/E87N/F33Y/G231S/I121R/I166T/I218V/L180W/L300P/L318F/N151K/P208A/P217A/Q86R/R138H/R169H/S129P/T345S/V36M); assay: biochemical; format: binding
Ends that are not written are not given here.
Numbers only here, please. The scale is µM.

IC50 for NMLSTVLGV [PB1.413] ?
1.06

Which IC50 reading was recorded for the sequence FQVDCFLWHV [NS1.9] ?
0.219

Form field: reported IC50 of GLFGAIAGFI [HA.345]
1.53

* * *

biological target: HLA-A*3301 (Homo sapiens, UniProt P04439, A270S/D185E/E176V/E277Q/E87N/F33T/G231S/H175R/I121M/I218V/I322F/K168Q/K210R/L300P/L318F/M331R/P217A/Q86R/Q94H/R138Q/T323A/T345S/T97I/V358M/Y195H); assay: biochemical; format: binding
Ends that are not written are not given here.
measurement_name: pIC50
Please keep in mind that pIC50 is minus log10 of the molar concentration; only the number is needed.

Reported pIC50, sequence GTFEFTSFFY [PB1.488] : ____
5.27

What does the record list as pIC50 for RLFFKCIYRR [M2.45] ?
6.62

Given SFSFGGFTFK [PB2.322] , state its recorded pIC50.
7.07

Which pIC50 value is on record for ASCMGLIYNR [M1.125] ?
6.35

Look up pIC50 for this sequence: SVQRNLPFER [NP.413]
6.49

Can you share its pIC50? I mean this sequence: SVQPTFSVQR [NP.407]
6.74

* * *

target: HLA-B*5401 (Homo sapiens, UniProt P01889, A329T/C349S/D138N/D201E/E176V/E187T/E204Q/E69G/I76V/K202T/L119W/R155S/R180L/S121T/S35A/S48A/V127L/V306I/V36M/Y140L); assay: biochemical; type: binding
Ends that are not written are not given here.
measurement_name: pIC50
The meaning of pIC50 here: minus log10 of the concentration in molar units.

// lookup pIC50 for LPRRSGAAGA [NP.172]
7.33

* * *

Kindly state IC50 for each of the entries shown.
target: HLA-B*4002 (Homo sapiens, UniProt P01889, A65T/A93T/A95T/D138N/D201E/D98Y/E176V/E204Q/E69K/K202T/N87E/Q56L/Q94N/R180L/S48T/Y33H/Y91S); test: biochemical; type: binding
Ends that are not written are not given here.
Numbers only here, please. The scale is nM.

Which IC50 value is on record for GERQNATEI [NP.17] ?
53

Recorded IC50 for TEVETYVLSI [M1.5] , please?
195

// IC50 lookup, key: SEQAAEAMEV [M1.196]
85

Value lookup for IC50; key = QEIRTFSFQL [NS2.184]
68

* * *

molecular target: HLA-A*1101 (Homo sapiens, UniProt P04439, A114D/D185E/E176A/F33Y/L180Q/S129P/T187R); experiment: biochemical; type: binding
Ends that are not written are not given here.
Provide the reported pIC50 of each item.
Scale note: pIC50 = -log10(concentration in M).

Which pIC50 value is on record for SFSFGGFTFK [PB2.322] ?
8.15

Returns the measured pIC50 for the input sequence. Input: KLVGINMSKK [PB1.471]
6.50

Would you kindly share the measured pIC50 for RLFFKCIYRR [M2.45] ?
6.53

Report pIC50 for SVQPTFSVQR [NP.407] please.
7.43

Need pIC50 of VLRGFLILGK [PB2.690] , thanks.
6.34

I am curious: what pIC50 value has been reported for KFLPDLYDYK [PA.104] ?
7.66

Which pIC50 is listed for GTFEFTSFFY [PB1.488] ?
9.00

Requested field: pIC50. Item: ASCMGLIYNR [M1.125]
7.49

GET /values?readout=pIC50&item= SVQRNLPFER [NP.413]
6.39

* * *

target: HLA-B*5101 (Homo sapiens, UniProt P01889, A329T/A93T/A95T/C349S/D138N/D201E/D98Y/E187L/E204Q/E69T/G107R/I218V/K202T/L105A/L119W/N104I/Q94N/R106L/R155S/R180L/S101N/S121T/S35A/S48A/V306I/V36M/Y195H/Y91F); assay: biochemical; format: binding
Ends that are not written are not given here.
measurement_name: IC50

Record request: IC50 value, item LPRRSGAAGA [NP.172]
> 10 µM

* * *

target: HLA-B*3501 (Homo sapiens, UniProt P01889, A329T/A93T/A95T/C349S/D201E/D98Y/E176V/E187L/E204Q/E69T/I218V/K202T/L119I/Q94N/R155S/R180L/S121R/S35A/S48A/T118I/V127L/V306I/V36M/Y140S/Y91F); assay: biochemical; format: binding
Ends that are not written are not given here.
measurement_name: IC50

Item LPRRSGAAGA [NP.172] has what recorded IC50?
> 10 µM

* * *

biological target: HLA-A*0203 (Homo sapiens, UniProt P04439, A173T/D140Y/D185E/D98H/E277Q/G131W/G231S/I119V/I121R/I166T/I218V/L180W/L300P/L318F/N151K/N90K/P208A/P217A/Q86G/Q94H/R138H/R169H/T345S); assay: biochemical; type: binding
Ends that are not written are not given here.
measurement_name: pIC50
# pIC50 = -log10(concentration in molar units)

Recorded pIC50 for NMLSTVLGV [PB1.413] , please?
7.96

// returns reported pIC50 for input FQVDCFLWHV [NS1.9]
8.52

Can you share its pIC50? I mean this sequence: FQGRGVFEL [NP.458]
6.51

// lookup pIC50 for GLFGAIAGFI [HA.345]
9.00

* * *

Could you please report measured IC50 for the items listed next?
molecular target: HLA-A*3101 (Homo sapiens, UniProt P04439, A270S/D185E/E176V/E277Q/F33T/G231S/G80R/H175R/I121M/I218V/I322F/K168Q/L300P/L318F/M331R/P217A/Q94H/R138Q/T323A/T345S/T97I/V358M); assay: biochemical; type: binding
Ends that are not written are not given here.
Just the number please, in µM, no unit attached.

Find the recorded IC50 belonging to SFSFGGFTFK [PB2.322] and report it.
0.019

Could you tell me which IC50 is on file for RLFFKCIYRR [M2.45] ?
0.005

Given the sequence ASCMGLIYNR [M1.125] , what is its reported IC50?
0.007

For the sequence SVQPTFSVQR [NP.407] , what IC50 is on record?
0.021

Query (sequence): GTFEFTSFFY [PB1.488] ; field requested: IC50
0.242

I am curious: what IC50 value has been reported for KFLPDLYDYK [PA.104] ?
2.41

Sample VLRGFLILGK [PB2.690] — what was its IC50?
0.085

Report IC50 for SVQRNLPFER [NP.413] please.
0.104

Return reported IC50; argument: KLVGINMSKK [PB1.471]
0.518

The values you see were collected from paper PMC2856764.
